tested on: Plasmodium falciparum NF54/iGP1_RE9H ulg8 stage V gametocytes; experiment: gametocyte viability (luciferase signal relative to DMSO control) (% of DMSO control); higher = less gametocytocidal activity, active = 50 or less; details: concentration: 1 µM; exposure time: 72 h
MEASURED QUANTITY: gametocyte viability
I'd appreciate a reply containing only the number, no unit.

Would you please look over these solved cases?
COMPOUND | gametocyte viability
CCCCCCCCOC(=O)C(O)CCC(=O)O (stereo not drawn) [Octyl-α-hydroxyglutarate] | 92.4
O=C(CCCCCCC(=O)Nc1ccc(I)cc1)NO | 88.3
O=C(c1cncc(Br)c1)N1CCC(N2CCCC2)CC1 | 86.5

We now examine a further compound.
Dear colleague, I am looking for the recorded gametocyte viability of the following compound: CC(/C=C/C(=O)NO)=C\[C@@H](C)C(=O)c1ccc(N(C)C)cc1
53.7
